# target-or-system: T1, Recombinant human CD4 (R&D Systems, Cat. 10327-CD) (human, UniProt P01730 26-390, limits assumed)
# T1 construct: Bought protein; also called huCD4
# assay-remarks: BLI (Octet Red 384), non-clonal supernatant captured on AMC sensors, 100 nM human CD4, 1:1 local fit;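 also: hybridoma antibodies from supernatants, one CD4 concentration giving single-point kinetics per supernatant, with curves fitted over both association and dissociation phases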
endpoint: Kd (nM)
Answers are plain numbers, in nM.

Please supply Kd for each of the following items, keeping them in order.
1. 75110_01K10A (antibody, V domains shown, Tested as non-clonal AlivaMab Mouse hybridoma supernatant (human variable regions and human kappa, mouse Fc); also called ADS75110 non-clonal supernatant 01K10A) VH: EVQLVESGGALVQPGGSLRLSCAASGFTFRNYDMHWVRQATGKGLEWVSTIGTAGDTYYPGSVKGRFTISRENAKNSLYLQMNSLRAGDTAVYYCARGGDYYYGMDVWGQGTTVTVSS VL: EIVLTQSPDTLSLSPGERATLSCRASQSLSSVYLAWYQQKPGQAPRLLIYGASSRATGIPDRFSGTGSGTDFTLTISRLEPEDFAVYYCQQYGSSPFTFGPGTKVDIK
2. 75110_02I16A (antibody, V domains shown, Tested as non-clonal AlivaMab Mouse hybridoma supernatant (human variable regions and human kappa, mouse Fc); also called ADS75110 non-clonal supernatant 02I16A) VH: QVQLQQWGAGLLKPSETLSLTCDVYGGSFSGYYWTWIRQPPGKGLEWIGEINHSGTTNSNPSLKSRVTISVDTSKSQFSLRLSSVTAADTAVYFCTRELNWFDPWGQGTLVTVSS VL: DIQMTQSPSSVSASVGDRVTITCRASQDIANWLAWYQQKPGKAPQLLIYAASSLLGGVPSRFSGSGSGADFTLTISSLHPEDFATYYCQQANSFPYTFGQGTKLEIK
3. 75110_10N21A (antibody, V domains shown, Tested as non-clonal AlivaMab Mouse hybridoma supernatant (human variable regions and human kappa, mouse Fc); also called ADS75110 non-clonal supernatant 10N21A) VH: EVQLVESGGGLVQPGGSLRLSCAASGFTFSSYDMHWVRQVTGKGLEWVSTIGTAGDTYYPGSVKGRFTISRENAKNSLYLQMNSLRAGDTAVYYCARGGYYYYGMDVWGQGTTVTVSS VL: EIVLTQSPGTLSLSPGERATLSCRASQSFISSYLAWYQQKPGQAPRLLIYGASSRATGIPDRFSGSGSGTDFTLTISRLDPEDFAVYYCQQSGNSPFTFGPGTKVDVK

result:
1. 340
2. 3.9
3. 0.873

Reference for the values: patent US20220112288A1
